assayed target: Prostaglandin G/H synthase 2 (Homo sapiens, UniProt P35354)
Sequence (P35354 whole entry): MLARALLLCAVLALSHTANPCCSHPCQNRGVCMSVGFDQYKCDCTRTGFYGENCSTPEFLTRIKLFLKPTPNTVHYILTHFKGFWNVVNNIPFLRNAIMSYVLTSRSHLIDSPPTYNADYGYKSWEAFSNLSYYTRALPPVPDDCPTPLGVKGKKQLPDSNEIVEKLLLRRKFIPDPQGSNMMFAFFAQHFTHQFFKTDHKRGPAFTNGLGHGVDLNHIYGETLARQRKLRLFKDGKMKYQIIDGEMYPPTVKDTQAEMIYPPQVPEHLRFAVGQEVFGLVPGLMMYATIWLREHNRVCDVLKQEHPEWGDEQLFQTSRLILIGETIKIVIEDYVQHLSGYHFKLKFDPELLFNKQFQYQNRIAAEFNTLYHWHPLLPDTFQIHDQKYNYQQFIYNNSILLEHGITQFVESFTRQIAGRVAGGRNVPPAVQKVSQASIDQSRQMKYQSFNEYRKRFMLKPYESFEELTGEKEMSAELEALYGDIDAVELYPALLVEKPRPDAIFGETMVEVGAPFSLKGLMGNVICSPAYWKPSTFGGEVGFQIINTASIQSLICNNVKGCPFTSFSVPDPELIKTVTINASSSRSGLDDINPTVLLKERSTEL
experimental protocol: Inhibition of purified COX2 assessed as formation of oxidized TMPD during reduction og PGG2 to PGH2 preincubated for 15 mins by chromogenic assay
pIC50: −log10 of the molar value.

>  <chem smiles>
Nc1cccc(Oc2ccc(OCCN3CCCC3)cc2)c1

>  <assayed target>
Prostaglandin G/H synthase 2 (Homo sapiens, UniProt P35354)

>  <pIC50>
< 4.00

$$$$
>  <chem smiles>
CS(=O)(=O)c1ccccc1Oc1ccc(OCCN2CCCC2)cc1

>  <assayed target>
Prostaglandin G/H synthase 2 (Homo sapiens, UniProt P35354)

>  <pIC50>
< 4.00

$$$$
>  <chem smiles>
CN(c1ccccc1Oc1ccc(OCCN2CCCC2)cc1)S(C)(=O)=O

>  <assayed target>
Prostaglandin G/H synthase 2 (Homo sapiens, UniProt P35354)

>  <pIC50>
4.04

$$$$
>  <chem smiles>
O=[N+]([O-])c1ccc(Oc2ccc(OCCN3CCCC3)cc2)c([N+](=O)[O-])c1

>  <assayed target>
Prostaglandin G/H synthase 2 (Homo sapiens, UniProt P35354)

>  <pIC50>
< 4.00

$$$$
>  <chem smiles>
c1cc(Oc2ccc(OCCN3CCCC3)cc2)ccn1

>  <assayed target>
Prostaglandin G/H synthase 2 (Homo sapiens, UniProt P35354)

>  <pIC50>
< 4.00

$$$$
>  <chem smiles>
CS(=O)(=O)Nc1ccc(Oc2ccc(OCCN3CCCC3)cc2)cc1

>  <assayed target>
Prostaglandin G/H synthase 2 (Homo sapiens, UniProt P35354)

>  <pIC50>
< 4.00

$$$$
